For each record, write down the corresponding Trimeric HA Binding: RLU.
Target: recombinant soluble homotrimeric HA of A/Wisconsin/67/05 (H3N2) (Influenza A virus A/Wisconsin/67/2005(H3N2))
Test: HA microarray, BCC supernatant
Settings: remark: other sources report otherwise
Lab book: enter the figure in RLU, no units written.

Recorded Trimeric HA Binding: RLU of TCN-546 (5089_L08) (antibody, V domains shown) VH: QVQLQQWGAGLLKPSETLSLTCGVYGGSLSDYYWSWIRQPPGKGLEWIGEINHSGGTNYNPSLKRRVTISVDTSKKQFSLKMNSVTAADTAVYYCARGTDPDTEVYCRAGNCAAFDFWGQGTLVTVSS VL: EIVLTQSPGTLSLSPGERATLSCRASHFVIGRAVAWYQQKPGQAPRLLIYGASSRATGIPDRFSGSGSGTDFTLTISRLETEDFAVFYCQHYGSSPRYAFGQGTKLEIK , please.
30200

Recorded Trimeric HA Binding: RLU of TCN-552 (5249_I23) (antibody, V domains shown) VH: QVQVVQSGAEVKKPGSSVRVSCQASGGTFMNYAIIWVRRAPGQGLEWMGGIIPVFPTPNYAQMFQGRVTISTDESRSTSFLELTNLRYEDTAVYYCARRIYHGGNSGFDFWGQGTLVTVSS VL: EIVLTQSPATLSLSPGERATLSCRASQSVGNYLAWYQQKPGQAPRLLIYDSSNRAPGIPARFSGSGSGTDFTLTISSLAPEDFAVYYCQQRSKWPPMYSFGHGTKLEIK , please.
14800

Recorded Trimeric HA Binding: RLU of TCN-535 (5246_P19) (antibody, V domains shown) VH: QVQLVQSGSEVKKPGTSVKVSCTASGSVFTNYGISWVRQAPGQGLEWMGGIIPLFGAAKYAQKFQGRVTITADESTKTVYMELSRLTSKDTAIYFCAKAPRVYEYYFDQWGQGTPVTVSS VL: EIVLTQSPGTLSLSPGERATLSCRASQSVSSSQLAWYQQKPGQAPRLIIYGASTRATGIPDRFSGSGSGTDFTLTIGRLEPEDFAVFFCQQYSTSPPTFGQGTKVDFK , please.
34300

Recorded Trimeric HA Binding: RLU of TCN-555 (5246_L16) (antibody, V domains shown) VH: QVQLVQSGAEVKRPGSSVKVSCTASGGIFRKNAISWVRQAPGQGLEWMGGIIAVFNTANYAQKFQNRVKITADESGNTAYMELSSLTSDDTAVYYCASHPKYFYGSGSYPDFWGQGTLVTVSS VL: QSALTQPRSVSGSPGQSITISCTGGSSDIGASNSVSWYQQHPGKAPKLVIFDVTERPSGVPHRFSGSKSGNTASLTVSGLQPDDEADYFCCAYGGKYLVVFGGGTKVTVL , please.
9800

Recorded Trimeric HA Binding: RLU of TCN-541 (5062_M11) (antibody, V domains shown) VH: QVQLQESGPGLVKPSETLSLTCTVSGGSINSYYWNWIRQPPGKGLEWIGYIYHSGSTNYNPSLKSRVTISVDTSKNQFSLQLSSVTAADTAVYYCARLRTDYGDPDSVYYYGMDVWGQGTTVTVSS VL: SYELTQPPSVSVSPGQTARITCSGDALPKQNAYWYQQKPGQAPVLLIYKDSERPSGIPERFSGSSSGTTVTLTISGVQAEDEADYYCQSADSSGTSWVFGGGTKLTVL , please.
2920

Recorded Trimeric HA Binding: RLU of TCN-553 (5261_C18) (antibody, V domains shown) VH: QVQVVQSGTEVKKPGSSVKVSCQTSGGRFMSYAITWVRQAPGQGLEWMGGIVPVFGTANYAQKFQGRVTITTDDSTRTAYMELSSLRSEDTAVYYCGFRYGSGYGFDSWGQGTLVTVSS VL: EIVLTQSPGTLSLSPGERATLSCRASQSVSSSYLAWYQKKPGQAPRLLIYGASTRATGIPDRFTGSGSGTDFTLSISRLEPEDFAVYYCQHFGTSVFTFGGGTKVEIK , please.
20000

Recorded Trimeric HA Binding: RLU of TCN-557 (5081_A04) (antibody, V domains shown) VH: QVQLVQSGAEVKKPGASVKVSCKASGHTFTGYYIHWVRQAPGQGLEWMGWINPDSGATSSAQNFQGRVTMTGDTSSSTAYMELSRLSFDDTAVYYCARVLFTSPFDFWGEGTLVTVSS VL: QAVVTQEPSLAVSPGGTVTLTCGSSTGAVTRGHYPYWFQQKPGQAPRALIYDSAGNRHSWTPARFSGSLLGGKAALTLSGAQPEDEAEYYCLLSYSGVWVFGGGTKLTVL , please.
10200

Recorded Trimeric HA Binding: RLU of TCN-540 (5060_F05) (antibody, V domains shown) VH: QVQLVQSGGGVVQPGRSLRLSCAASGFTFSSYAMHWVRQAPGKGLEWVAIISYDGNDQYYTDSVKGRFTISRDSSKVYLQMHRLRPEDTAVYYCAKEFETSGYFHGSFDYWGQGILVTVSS VL: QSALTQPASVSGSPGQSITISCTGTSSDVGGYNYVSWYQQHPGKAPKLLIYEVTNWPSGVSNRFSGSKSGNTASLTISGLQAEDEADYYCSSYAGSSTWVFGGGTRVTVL , please.
728

Recorded Trimeric HA Binding: RLU of TCN-550 (5096_F06) (antibody, V domains shown) VH: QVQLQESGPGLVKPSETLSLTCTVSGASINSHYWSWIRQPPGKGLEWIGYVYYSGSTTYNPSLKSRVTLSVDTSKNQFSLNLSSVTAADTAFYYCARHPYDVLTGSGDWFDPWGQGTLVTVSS VL: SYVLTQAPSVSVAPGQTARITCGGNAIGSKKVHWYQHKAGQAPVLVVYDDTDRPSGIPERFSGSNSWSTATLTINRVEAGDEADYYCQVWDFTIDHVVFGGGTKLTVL , please.
26300

Recorded Trimeric HA Binding: RLU of TCN-531 (5091_H13) (antibody, V domains shown) VH: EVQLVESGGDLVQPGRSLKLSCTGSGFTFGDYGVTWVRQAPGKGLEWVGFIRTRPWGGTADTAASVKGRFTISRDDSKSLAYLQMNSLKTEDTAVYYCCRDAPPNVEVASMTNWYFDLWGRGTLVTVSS VL: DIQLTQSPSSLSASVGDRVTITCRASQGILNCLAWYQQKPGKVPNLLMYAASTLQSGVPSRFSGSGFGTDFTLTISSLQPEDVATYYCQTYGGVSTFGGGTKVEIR , please.
7090

The measured values listed here are drawn from patent US20150086555A1.
